Molecular target: T1, zCON9_A
T1 chain: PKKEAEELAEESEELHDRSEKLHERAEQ
Test: two-hybrid library CCmax;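 also: natural log of median RNA to DNA barcode read ratio; higher means stronger binding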
// values below are reported interaction score
Enter a number only.

Consider the reported interaction score for these binders:
>  <BINDER>
DKNAALKAKIAALKAKIAALKAENAALEG [P12-AA]

>  <interaction score>
-1.73

$$$$
>  <BINDER>
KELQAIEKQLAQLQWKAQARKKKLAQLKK [4H_APH]

>  <interaction score>
-1.26

$$$$
>  <BINDER>
DKIAALKAKIAALKAENAALEAENAALEG [P4-AA]

>  <interaction score>
-1.68

$$$$
>  <BINDER>
DEIAALEAEIAALEAKNAALKAKNAALKG [P3-AA]

>  <interaction score>
-1.78

$$$$
>  <BINDER>
DKIAALKAENAALEAKIAALKAENAALEG [P8-AA]

>  <interaction score>
-1.74

$$$$

Now take the following binder into account.
Could you share which interaction score value was measured for DENAALEAEIAALEAEIAALEAKNAALKG [P11-AA] ?
-1.48
